For each of the compounds below, state its solubility.
Test Details: Solubility in aqueous solvent
Format: physicochemical
Measurement Context: 25° C., distilled water; pH of the solution given beside each value; read-out: Solubility, Water
Answers are plain numbers, in mg/mL.

CC(C)[C@H](NC(=O)[C@@H]1CCCN1C(=O)[C@@H](NC(=O)Cn1ccc(=O)n(CC(=O)O)c1=O)C(C)C)C(=O)c1nc2ccccc2o1 [I-b-2]: 5

Below is a list of compounds. For each, state its recorded solubility.
1. CC(C)[C@H](NC(=O)[C@@H]1CCCN1C(=O)[C@@H](NC(=O)Cn1ccc(=O)n(CC(=O)O)c1=O)C(C)C)C(=O)C(=O)NCc1ccccc1 [I-b-3]
2. CC(C)(C)C(=O)Oc1ccc(S(=O)(=O)Nc2ccccc2C(=O)NCC(=O)O)cc1 [Control (a), reference compound]

[8.7, 0.012]
